Tested on: PPARg:RXRa 90nM:30nM, anti-RXR (NR concentration 90 nM, RXRa partner concentration 30 nM)
Assay: PBM binding z-score (relative to random genomic background probes); higher = stronger binding; sequences stand for … in GC…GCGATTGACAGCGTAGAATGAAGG
value.kind: PBM binding z-score
Answer using only a numeral; do not append any unit.

As a guide, the following entries are already answered.
[[record]]
biopolymer_sequence = "TCTTGTAGATCAACAGGACGTTAAGAAAGATCGA"
result = 2.27

[[record]]
biopolymer_sequence = "GCTGCTAAGTCAGGTTGGTCAGCTAACGGGTACG"
result = -0.942

[[record]]
biopolymer_sequence = "CCTCGGAGGACAGAAGGTCAGAGATGTCCGCTTT"
result = 0.432


Could you now consider this next sequence?
Give the measured PBM binding z-score for GGTAGTTGGTCAGTAAAAGGTCACACACCGGTCG
3.81
